// endpoint Ki / system CB2 receptor (UniProt P47936)

Quick one: Ki for C=C(C)[C@H]1CCC(CO)=C[C@@H]1c1c(O)cc(C2(CCCCCC)SCCS2)cc1O ?
0.028 µM

Returns the measured Ki for the input compound. Input: CC1=C[C@H](c2c(O)cc(C3(CCCCCC#N)CCCC3)cc2O)[C@@H]2C[C@H]1C2(C)C
0.0008 µM

Quick one: Ki for C=C(C)[C@@H]1CCC(=COC)C[C@H]1c1c(O)cc(C23CC4CC(CC(C4)C2)C3)cc1O ?
0.375 µM

So what does the record say about Ki for C=C(C)[C@@H]1CCC(COC(C)=O)=C[C@H]1c1c(O)cc(C(C)(C)CCCCCC)cc1O ?
0.375 µM

# get_value(readout='Ki', item= C=C(C)[C@H]1CCC(COC(C)=O)=C[C@@H]1c1c(O)cc(C2(/C=C\CCCC)CCOCC2)cc1O )
0.038 µM

Returns the measured Ki for the input compound. Input: CCCC/C=C\C1(c2cc(O)c([C@@H]3C=C(C)[C@@H]4C[C@H]3C4(C)C)c(O)c2)CCCC1
0.029 µM

What value of measured Ki is listed for C=C(C)[C@H]1CCC(=O)C[C@@H]1c1c(O)cc(C(C)(C)CCCCCC)cc1O ?
0.041 µM

###

- System: CB1 (Rattus norvegicus, UniProt P20272)
- Sequence (P20272 whole entry): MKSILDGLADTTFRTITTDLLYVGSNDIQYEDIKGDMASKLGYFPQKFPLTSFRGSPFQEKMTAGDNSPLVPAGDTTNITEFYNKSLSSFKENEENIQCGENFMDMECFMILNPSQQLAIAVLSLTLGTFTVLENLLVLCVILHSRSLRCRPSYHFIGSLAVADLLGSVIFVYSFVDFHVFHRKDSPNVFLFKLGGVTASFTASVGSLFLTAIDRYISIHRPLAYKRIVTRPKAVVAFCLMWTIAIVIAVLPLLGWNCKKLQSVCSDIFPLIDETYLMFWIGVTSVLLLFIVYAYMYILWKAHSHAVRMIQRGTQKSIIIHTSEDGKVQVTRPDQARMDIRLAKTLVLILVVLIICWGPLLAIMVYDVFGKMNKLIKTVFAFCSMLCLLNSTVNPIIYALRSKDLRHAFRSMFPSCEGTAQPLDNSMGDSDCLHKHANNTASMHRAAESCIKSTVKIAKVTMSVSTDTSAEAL
- Experimental Details: CB1 receptor binding affinity (Ki)
Label key: T means Ki under 800 nM; F means Ki of 800 nM or more.

Check if Ki falls below 800 nM for C=C(C)[C@H]1CCC(CO)=C[C@@H]1c1c(O)cc(C2(CCCCCC)CC2)cc1O [Compound 4.3] .
T

Consider the compound CCCCCc1cc(O)c([C@@H]2C=C(C)[C@@H]3C[C@H]2C3(C)C)c(O)c1 [Compound 43.1, reference compound] . Is its Ki strictly less than 800 nM?
F

Check if Ki falls below 800 nM for C=C(CO)[C@@H]1CC[C@@H](CO)C[C@H]1c1c(O)cc(C23CC4CC(CC(C4)C2)C3)cc1O [Compound 54.2] .
F

In the record for CC1=C[C@H](c2c(O)cc(C3(CCCCCC#N)CCCC3)cc2O)[C@@H]2C[C@H]1C2(C)C [Compound 41] , is Ki less than 800 nM?
T

Please determine if C=C(C)[C@H]1CCC(COC(C)=O)=C[C@@H]1c1c(O)cc(C2(CCCCCC#N)CCC2)cc1O [Compound 33] is below 800 nM in terms of Ki.
T

Identify whether the compound CC1=C[C@H](c2c(O)cc(C3(CCCCCBr)CCC3)cc2O)[C@@H]2C[C@H]1C2(C)C [Compound 40.8] records Ki below 800 nM.
T

Is Ki of C=C(C)[C@@H]1CC[C@@H](CO)C[C@H]1c1c(O)cc(C23CC4CC(CC(C4)C2)C3)cc1O [Compound 51.2] strictly below 800 nM?
F

###

pKi, UniProtKB P47936, per-entry values.
Reminder that pKi means the negative base-10 logarithm of the concentration expressed in mol/L.

Query (molecule): C=C(C)[C@H]1CCC(COC(C)=O)=C[C@@H]1c1c(O)cc(C(C)(C)CCCCCBr)cc1O ; field requested: pKi
7.57

I am curious: what pKi value has been reported for C=C(C)[C@H]1CCC(COC(C)=O)=C[C@@H]1c1c(O)cc(C2(CCCCCBr)CCC2)cc1O ?
7.46

Param item = C=C(C)[C@H]1CCC(COC(C)=O)=C[C@@H]1c1c(O)cc(C2(/C=C\CCCC)CCCC2)cc1O ; retrieve measured pKi.
7.92

Any idea what pKi was measured for C=C(C)[C@H]1CCC(CO)=C[C@@H]1c1c(O)cc(C2(CCCCCBr)CCC2)cc1O ?
7.96

GET /values?readout=pKi&item= C=C(C)[C@H]1CCC(CO)=C[C@@H]1c1c(O)cc(C2(CCCCCC)CCCC2)cc1O
7.80

If you can, please state the reported pKi value of C=C(C)[C@H]1CCC(CO)=C[C@@H]1c1c(O)cc(C2(CCCCCC)CC2)cc1O .
7.85
